I'd be grateful if you could share measured TOX 30 0.5 h (animals toxic/tested) for these entries.
Experiment: Acute toxicity, minimal motor impairment (rotorod), mice
Format: in vivo
Conditions: mice, 30 mg/kg, 0.5 h, rotorod
Protocol: Toxicity was measured using the minimal motor impairment test described below. Animals are monitored for overt signs of impaired neurological or muscular function to assess a compound's toxicity. In mice, the rotorod procedure is used to disclose minimal muscular or neurological impairment. When a mouse is placed on a rotating rod (6 rpm), the animal can maintain its equilibrium for long periods of time. […]

Completed entries (count: 2):
| Compound | TOX 30 0.5 h (animals toxic/tested) |
| --- | --- |
| CCOC(=O)C1[C@@H]2[C@@H](OS(=O)(=O)N(C)C)[C@@H]3O[C@H](c4ccc(OC)cc4)OC[C@H]3O[C@H]12 (stereo partly shown) [Compound 17a] | 0/4 |
| CCOC(=O)C1[C@H]2O[C@@H]3COC(C)(C)O[C@H]3C(=NO)[C@@H]12 (stereo partly shown) | 0/4 |

Hi team, please reply with TOX 30 0.5 h (animals toxic/tested) for each item in this list.
1. CCOC(=O)[C@@H]1[C@H]2O[C@@H]3CO[Si](C(C)(C)C)(C(C)(C)C)O[C@H]3/C(=N/O)[C@H]21
2. CCOC(=O)[C@@H]1[C@H]2O[C@@H]3CO[Si](C(C)(C)C)(C(C)(C)C)O[C@H]3[C@H](OS(=O)(=O)N(C)C)[C@H]21
3. CCOC(=O)C1[C@@H]2[C@@H](O)[C@@H]3O[C@H](c4cccc(OC)c4)OC[C@H]3O[C@H]12 (stereo partly shown) [Compound 20e]

stdout:
["0/4", "0/4", "0/4"]

Consider the following items and state reported TOX 30 0.5 h (animals toxic/tested) for each.
1. CCOC(=O)C1[C@@H]2[C@@H](O)[C@@H]3O[C@H](c4ccc(C(C)C)cc4)OC[C@H]3O[C@H]12 (stereo partly shown) [Compound 20b]
2. CCOC(=O)C1[C@@H]2[C@@H](O)[C@@H]3O[C@H](c4ccc(F)cc4F)OC[C@H]3O[C@H]12 (stereo partly shown) [Compound 20d]

stdout:
1. 1/4
2. 1/4
